- target_or_test_system: Histamine H1 receptor (Homo sapiens, UniProt P35367)
- Sequence (P35367 whole entry): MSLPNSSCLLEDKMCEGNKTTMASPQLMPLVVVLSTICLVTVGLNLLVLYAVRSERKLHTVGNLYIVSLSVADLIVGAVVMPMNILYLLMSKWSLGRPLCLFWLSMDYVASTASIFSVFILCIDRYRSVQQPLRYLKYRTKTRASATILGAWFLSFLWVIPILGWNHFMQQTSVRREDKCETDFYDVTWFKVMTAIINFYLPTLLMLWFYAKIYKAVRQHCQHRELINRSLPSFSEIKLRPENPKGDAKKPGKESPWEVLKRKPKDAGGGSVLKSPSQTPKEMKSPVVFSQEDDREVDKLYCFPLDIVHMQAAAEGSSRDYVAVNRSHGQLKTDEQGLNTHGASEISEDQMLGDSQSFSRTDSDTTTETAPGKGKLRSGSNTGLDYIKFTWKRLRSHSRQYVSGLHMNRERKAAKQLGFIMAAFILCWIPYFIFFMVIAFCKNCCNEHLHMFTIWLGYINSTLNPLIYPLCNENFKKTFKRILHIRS
- protocol_text: Displacement of [3H]-pyrilamine from human histamine H1 receptor expressed in stable HEK cells after 90 mins by microbeta scintillation counting method
- Format: cell-based
pKi: −log10 of the molar value.
parameter: pKi

Please state pKi for every compound in the list that follows.
1. Cc1ncc2nccn2c1-c1ccc(Oc2nccc3occc23)cc1C(F)(F)F
2. FC(F)(F)c1cc(Oc2nccc3ccsc23)ccc1-c1cccc2nccn12

["< 5.00", 5.59]

Considering Cc1cc(Oc2nccc3occc23)ccc1-c1c(C)ncc2nccn12 , its pKi with Histamine H1 receptor (Homo sapiens, UniProt P35367) was recorded as < 5.00

----------
- target_or_test_system: D(2) dopamine receptor (Homo sapiens)
- Sequence (P14416 whole entry): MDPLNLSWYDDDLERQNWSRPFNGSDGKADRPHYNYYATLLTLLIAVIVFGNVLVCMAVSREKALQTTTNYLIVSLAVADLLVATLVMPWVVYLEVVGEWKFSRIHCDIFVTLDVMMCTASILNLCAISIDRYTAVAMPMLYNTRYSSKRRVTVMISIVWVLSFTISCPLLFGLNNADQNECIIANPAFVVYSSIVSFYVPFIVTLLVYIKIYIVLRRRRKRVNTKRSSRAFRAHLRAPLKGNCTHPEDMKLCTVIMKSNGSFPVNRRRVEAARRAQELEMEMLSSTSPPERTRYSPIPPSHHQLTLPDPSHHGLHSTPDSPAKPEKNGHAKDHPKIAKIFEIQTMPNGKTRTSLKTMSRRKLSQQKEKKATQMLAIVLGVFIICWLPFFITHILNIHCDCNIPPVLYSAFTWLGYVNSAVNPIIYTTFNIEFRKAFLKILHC
- protocol_text: Displacement of [3H]-N-methylspiperone from recombinant human D2 receptor stably expressed in fibroblast cells measured after 90 mins by microbeta scintillation counting method
Answer each item with its documented Ki.
One number for each entry, in µM.

> print(dat)
                           molecular.string  measure.unit  measured.result
1  FC(F)(F)c1cc(Oc2nccc3ccsc23)ccc1-c1cccc2nccn12            µM              8.7
2  Cc1cc(Oc2nccc3occc23)ccc1-c1c(C)ncc2nccn12            µM              8.3
3  Cc1ncc2nccn2c1-c1ccc(Oc2nccc3occc23)cc1C(F)(F)F            µM              9.6

Now look at this one.
Form field Ki, entry FC(F)(F)c1cc(Oc2nccc3occc23)ccc1-c1cccc2nccn12 : 7.6

----------
- target_or_test_system: Muscarinic acetylcholine receptor M2 (Homo sapiens)
- Sequence (P08172 whole entry): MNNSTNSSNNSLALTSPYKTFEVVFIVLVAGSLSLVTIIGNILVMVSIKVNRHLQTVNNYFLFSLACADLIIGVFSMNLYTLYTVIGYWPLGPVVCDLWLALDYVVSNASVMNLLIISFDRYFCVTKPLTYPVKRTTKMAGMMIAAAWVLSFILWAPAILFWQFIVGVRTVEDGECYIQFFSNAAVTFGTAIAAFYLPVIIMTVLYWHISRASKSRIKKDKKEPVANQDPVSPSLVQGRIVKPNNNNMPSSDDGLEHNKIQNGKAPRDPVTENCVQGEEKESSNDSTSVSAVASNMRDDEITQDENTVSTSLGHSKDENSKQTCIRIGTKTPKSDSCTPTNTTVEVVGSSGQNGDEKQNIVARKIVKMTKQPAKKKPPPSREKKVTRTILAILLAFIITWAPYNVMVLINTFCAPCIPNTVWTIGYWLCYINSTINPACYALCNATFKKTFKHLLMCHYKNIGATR
- protocol_text: Displacement of [3H]-QNB/[3H]-NMS from human muscarinic M2 receptor expressed in stable CHO cells after 90 mins by microbeta scintillation counting method
- Format: cell-based
Answer each item with its documented Ki.
One number for each entry, in µM.

> print(dat)
                           molecular.string  parameter  measured.result
1  Cc1ncc2nccn2c1-c1ccc(Oc2nccc3occc23)cc1C(F)(F)F         Ki              7.3

Now look at this one.
Considering Cc1cc(Oc2nccc3occc23)ccc1-c1c(C)ncc2nccn12 , its Ki with Muscarinic acetylcholine receptor M2 (Homo sapiens) was recorded as 7.7

----------
- target_or_test_system: D(1A) dopamine receptor (Homo sapiens, UniProt P21728)
- Sequence (P21728 whole entry): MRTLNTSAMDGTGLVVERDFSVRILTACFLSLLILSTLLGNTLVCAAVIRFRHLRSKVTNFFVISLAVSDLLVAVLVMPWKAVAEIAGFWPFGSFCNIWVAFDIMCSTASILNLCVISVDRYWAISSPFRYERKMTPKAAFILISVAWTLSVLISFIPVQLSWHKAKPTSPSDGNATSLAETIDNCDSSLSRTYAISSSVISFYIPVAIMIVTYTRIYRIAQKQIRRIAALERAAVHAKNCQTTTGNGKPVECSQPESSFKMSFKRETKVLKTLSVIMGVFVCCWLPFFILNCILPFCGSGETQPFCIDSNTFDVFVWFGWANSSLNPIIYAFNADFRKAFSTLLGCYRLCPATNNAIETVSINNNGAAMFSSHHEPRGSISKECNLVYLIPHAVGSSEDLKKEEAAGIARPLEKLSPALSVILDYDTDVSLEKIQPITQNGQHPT
- protocol_text: Agonist activity at recombinant human D1 receptor expressed in HEK29T cells assessed as induction of stimulatory G-protein-mediated cAMP accumulation measured after 15 mins by Glosensor-based FLIPR assay
- Assay type: functional, cell-based
Answer each item with its documented pEC50.
One number for each entry, as −log10 of the molar value.

> print(dat)
                           molecular.string                     target.or.test.system  measured.result
1  Cc1cc(-c2c(C)ncc3nccn23)ccc1Oc1nccc2occc12  D(1A) dopamine receptor (Homo sapiens, UniProt P21728)             6.21

Please state pEC50 for every compound in the list that follows.
1. Cc1cc(Oc2nccc3occ(C4CC4)c23)ccc1-c1c(C)ncc2nccn12
2. Cc1cc(Oc2nccc3occc23)ccc1-c1c(C)cnnc1C
3. Cc1cc(N(c2nccc3occc23)C(C)C)ccc1-c1c(C)ncc2nccn12
4. Cc1c(Oc2nccc3occc23)ccc(-c2cccc3nccn23)c1C

1. 7.21
2. 8.92
3. 7.00
4. 6.96

All values here come from ChEMBL document CHEMBL4390674.
